Biological target: T1, Biotin PSGL-1(42-62) peptide, unmodified (human, C-terminal Lys-biotin)
T1 construct: Residues 42-62 followed by GGGK-biotin; also called WT; wild-type
T1 peptide: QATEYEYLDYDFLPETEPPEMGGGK
Test: ELISA, immobilized biotin peptide
Description: A typical ELISA was performed by coating high binding half-well plates (Corning Cat. #3690) with 3 ug/mL/25 ul per well of biotinylated N-terminal PSGL-1 peptides, which incorporated residues 42 to 62 of the protein, in PBS, pH 7.4, overnight at 4° C. The peptide was unmodified or contained sulfated tyrosine at all 3 tyrosine positions (46, 48, and 51) or at one position (tyr51) (Table 7). PSGL-1 protein or peptide served as a positive control. […]
pEC50: −log10 of the molar value.
Measurement type: pEC50

2E12 (antibody, V domains shown, Mouse hybridoma mAb; only variable domains given) VH: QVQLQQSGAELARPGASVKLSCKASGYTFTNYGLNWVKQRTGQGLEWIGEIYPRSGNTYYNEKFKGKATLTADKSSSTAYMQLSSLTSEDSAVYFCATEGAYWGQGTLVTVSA VL: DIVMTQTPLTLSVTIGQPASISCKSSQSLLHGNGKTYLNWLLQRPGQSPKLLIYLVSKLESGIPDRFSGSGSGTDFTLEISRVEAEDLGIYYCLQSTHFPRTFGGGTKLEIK    9.16
